# target: T1, human caspase-8β (Homo sapiens, UniProt Q14790)
# T1 construct: expressed in transfected cells; host or cells: Saccharomyces cerevisiae FY250, single-copy ARS/CEN vector YCpGAL1-caspase-8β-L, GAL1 promoter
# T1 sequence (Q14790 1-464 isoform Q14790-2): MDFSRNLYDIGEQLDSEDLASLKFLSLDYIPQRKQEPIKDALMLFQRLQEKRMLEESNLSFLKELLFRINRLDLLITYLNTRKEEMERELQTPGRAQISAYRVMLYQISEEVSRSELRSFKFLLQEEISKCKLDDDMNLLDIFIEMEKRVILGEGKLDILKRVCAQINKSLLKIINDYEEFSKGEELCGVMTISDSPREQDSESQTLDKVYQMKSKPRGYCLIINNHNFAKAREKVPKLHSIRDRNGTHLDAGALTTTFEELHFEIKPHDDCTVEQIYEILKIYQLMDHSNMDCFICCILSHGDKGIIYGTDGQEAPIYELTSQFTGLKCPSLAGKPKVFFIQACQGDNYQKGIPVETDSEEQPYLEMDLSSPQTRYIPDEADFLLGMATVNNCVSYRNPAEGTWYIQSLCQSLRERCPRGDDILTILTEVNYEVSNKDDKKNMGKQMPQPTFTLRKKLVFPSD
# assay_protocol: Yeast screening method: suppression of caspase-8β-induced lethality in S. cerevisiae FY250 double transformants on galactose medium
# Assay type: cell-based
# details: Table 1 Caspase Modulators; identified using the screening method of the invention

{"columns": ["molecule", "Caspase Inhibitor"],
 "data": [
  ["Viral protein p35: known viral protein caspase inhibitor, expressed from YCpGAL1-p35-U vector (protein) MCVIFPVEIDVSQTIIRDCQVDKQTRELVYINKIMNTQLTKPVLMMFNISGPIRSVTRKNNNLRDRIKSKVDEQFDQLERDYSDQMDGFHDSIKYFKDEHYSVSCQNGSVLKSKFAKILKSHDYTDKKSIEAYEKYCLPKLVDERNDYYVAVCVLKPGFENGSNQVLSFEYNPIGNKVIVPFAHEINDTGLYEYDVVAYVDSVQFDGEQFEEFVQSLILPSSFKNSEKVLYYNEASKNKSMIYKALEFTTESSWGKSEKYNWKIFCNGFIYDKKSKVLYVKLHNVTSALNKNVILNTIK", "✓"]
]}
